The values you see were collected from patent US20250241914A1.

system: S. aureus NCTC 12493; experiment: in vitro antistaphylococcal activity, broth microdilution method (MIC/MBC); format: cell-based, Staphylococcus aureus
MEASUREMENT KIND: MBC value relative to MIC value

• CO[C@H]1/C=C/O[C@@]2(C)Oc3c(C)c(O)c4c(O)c(c(CNCCCn5cc(CCn6cc(F)c(=O)[nH]c6=O)nn5)c(O)c4c3C2=O)NC(=O)/C(C)=C\C=C\[C@H](C)[C@H](C)[C@@H](C)[C@@H](O)[C@@H](C)[C@H](OC(C)=O)[C@@H]1C [Compound 3A] = the same
• O=c1[nH]cc(F)c(=O)[nH]1 [Compound 5-FU, 5-Fluorouracil, reference compound] = 8 times
• CO[C@H]1/C=C/O[C@@]2(C)Oc3c(C)c(O)c4c(O)c(c(CNCCOCCOCCOCn5cc(CCn6cc(F)c(=O)[nH]c6=O)nn5)c(O)c4c3C2=O)NC(=O)/C(C)=C\C=C\[C@H](C)[C@H](C)[C@@H](C)[C@@H](O)[C@@H](C)[C@H](OC(C)=O)[C@@H]1C [Compound 3B] = the same
• CO[C@H]1/C=C/O[C@@]2(C)Oc3c(C)c(O)c4c(O)c(c(/C=N/N5CCN(C)CC5)c(O)c4c3C2=O)NC(=O)/C(C)=C\C=C\[C@H](C)[C@H](O)[C@@H](C)[C@@H](O)[C@@H](C)[C@H](OC(C)=O)[C@@H]1C [Rifampicin, reference compound] = 16 times

---

tested on: S. aureus NCTC 12493; experiment: in vitro antistaphylococcal activity, broth microdilution method (MIC/MBC); type: cell-based, Staphylococcus aureus; conditions: Staphylococcus aureus, NCTC12493, lowest concentration reducing viability of inoculum by ≥99.9%, 24 h at 37° C.
Entries and their MBC values follow.
# unit: µg/mL | format: bare number

These solved cases illustrate the format of a correct answer.
* CO[C@H]1/C=C/O[C@@]2(C)Oc3c(C)c(O)c4c(O)c(c(/C=N/N5CCN(C)CC5)c(O)c4c3C2=O)NC(=O)/C(C)=C\C=C\[C@H](C)[C@H](O)[C@@H](C)[C@@H](O)[C@@H](C)[C@H](OC(C)=O)[C@@H]1C [Rifampicin, reference compound] | 4
* O=c1[nH]cc(F)c(=O)[nH]1 [Compound 5-FU, 5-Fluorouracil, reference compound] | 16
* CO[C@H]1/C=C/O[C@@]2(C)Oc3c(C)c(O)c4c(O)c(c(CNCCOCCOCCOCn5cc(CCn6cc(F)c(=O)[nH]c6=O)nn5)c(O)c4c3C2=O)NC(=O)/C(C)=C\C=C\[C@H](C)[C@H](C)[C@@H](C)[C@@H](O)[C@@H](C)[C@H](OC(C)=O)[C@@H]1C | 2

Could you now consider this next compound?
stdin: May I ask what MBC has been recorded for CO[C@H]1/C=C/O[C@@]2(C)Oc3c(C)c(O)c4c(O)c(c(CNCCCn5cc(CCn6cc(F)c(=O)[nH]c6=O)nn5)c(O)c4c3C2=O)NC(=O)/C(C)=C\C=C\[C@H](C)[C@H](C)[C@@H](C)[C@@H](O)[C@@H](C)[C@H](OC(C)=O)[C@@H]1C ?
stdout: 1
